B1: glmS ribozyme (parent)
chain: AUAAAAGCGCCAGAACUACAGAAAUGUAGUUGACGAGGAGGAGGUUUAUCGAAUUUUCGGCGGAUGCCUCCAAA

# Variants of: B1
# method: self-cleavage kobs at 10000 uM GlcN6P; higher = faster cleavage; RNA array
# conditionSummary: with glucosamine-6-phosphate
Variants at the floor of the assay were thinned out.
Kindly supply the reported self-cleavage kobs at 10000 uM GlcN6P values for the records listed here.
Give the quantity in s⁻¹, number only.

Exercise: What value of self-cleavage kobs at 10000 uM GlcN6P has been reported for the following variant? AUAAAAGCGCCAGAACUACAGAAAUGUAGUUGACGAGGAGAAGGUUUUUCGAAUUUUCGGCGGAUGCCUCCAAA [G41A A48U]
Solution: 3.63e-05

Exercise: What value of self-cleavage kobs at 10000 uM GlcN6P has been reported for the following variant? AUAAAAGCGCCAGAACUACAGAAAUGUAGUUGACGAGGCGGAGGUUUUUCGAAUUUUCGGCGGAUGCCUCCAAA [A39C A48U]
Solution: 8.1e-05

Exercise: What value of self-cleavage kobs at 10000 uM GlcN6P has been reported for the following variant? AUAAAUGCGCCAGAACUACAGAAAUGUAGUUGACGAGGAGGAGGGUUAUCGAAUUUUCGGCGGAUACCUCCAAA [A6U U45G G66A]
Solution: 0.000175

Exercise: What value of self-cleavage kobs at 10000 uM GlcN6P has been reported for the following variant? AUAAAAGCGCCAGAACUACAGAAAUGUAGCUGACGAGGAGGAGGUUUAUCGAAGUUUCGGCGGAUGGCUCCAAA [U30C U54G C67G]
Solution: 2.88e-05

Exercise: What value of self-cleavage kobs at 10000 uM GlcN6P has been reported for the following variant? AUAAAAGCGGCAGAACUACAGAAAUGUAGUUGACGAGGAGGAGGUUUAUCGAAUUUUCGUCGGAUGCCUCCAAA [C10G G60U]
Solution: 2.05e-05

Exercise: What value of self-cleavage kobs at 10000 uM GlcN6P has been reported for the following variant? AUAAAAGCGCCAGAACUACAGAAAUGUAGUUGACGAGGAGGAGGUUUAUCGAAUUUUCGGCGGAUACUUCCAAA [G66A C68U]
Solution: 0.00549

Exercise: What value of self-cleavage kobs at 10000 uM GlcN6P has been reported for the following variant? AUAAAAGCGCCAGAACUACAGAAAUGUAGCUGACGAGGAGGAGGUUUAUCGAAUUUUCGGCGGAUGCCACCAAA [U30C U69A]
Solution: 2.76e-05

Exercise: What value of self-cleavage kobs at 10000 uM GlcN6P has been reported for the following variant? AUAAAAGCGCCAGUACUACAGAAAUGUAGUUGACGAGGAGGAGGUUUAUGGAAUUUUCGGCGGAUGCCUCCAAA [A14U C50G]
Solution: 0.000112

Exercise: What value of self-cleavage kobs at 10000 uM GlcN6P has been reported for the following variant? AUAAAAGCGCCAGAACUACAGAAAUGUAGUUGACGAGGAGGAGGUUUAUGGAAUUUUCGGCGGAUGUCUCCAAA [C50G C67U]
Solution: 0.000101

Exercise: What value of self-cleavage kobs at 10000 uM GlcN6P has been reported for the following variant? AUAAAAGCGCCAGGACUACAGAAAUGUAGUGGACGAGGAGGAGGUUUAUCGAAUUUUCGGCGGAUGUCUCCAAA [A14G U31G C67U]
Solution: 0.00162

Exercise: What value of self-cleavage kobs at 10000 uM GlcN6P has been reported for the following variant? AUAAAAGCGCCAGAACUACAGAAAUGUAGUAGACGAGGAGGAGGUGUAUCGAAUUUUCGGCGGAUGCCUCCAAA [U31A U46G]
Solution: 0.00387

Exercise: What value of self-cleavage kobs at 10000 uM GlcN6P has been reported for the following variant? AUAAAAGCGCCAGAACUACAGAAAUGUAGUUGACGAGGAGAAGGUUUAUCGAAUUUUCGGCGGAUGACUCCAAA [G41A C67A]
Solution: 4.21e-05

Exercise: What value of self-cleavage kobs at 10000 uM GlcN6P has been reported for the following variant? AUAAAAGCGCCAGAACUACAGAAAUGUAGUUGACGAGGAGGAGGAUUAUCGAAUUUUUGGCGGAUGCCUCCAAA [U45A C58U]
Solution: 0.000149

Exercise: What value of self-cleavage kobs at 10000 uM GlcN6P has been reported for the following variant? AUAAAAGCGCCAGAGCUACAGAAAUGUAGUUGACGAGGAGGAGGUUUCUCGAAUUUUCGGCGGAUGCCUCCAAA [A15G A48C]
Solution: 0.000365

Exercise: What value of self-cleavage kobs at 10000 uM GlcN6P has been reported for the following variant? AUAAAAGCGCCAGAACUACAGAAAUGUAGUUGACGAGGAGGCGGUUUAUCGAAUUUUCGGCGGAUGCCACCAAA [A42C U69A]
Solution: 0.0008

Exercise: What value of self-cleavage kobs at 10000 uM GlcN6P has been reported for the following variant? AUAAAAGCGCCAGAACUACAGAAAUGUAGUUGACGAGGAGGAGGUUUAUCGAAUUUUGGGCGGAUGCGUCCAAA [C58G C68G]
Solution: 1.82e-05

Exercise: What value of self-cleavage kobs at 10000 uM GlcN6P has been reported for the following variant? AUAAAAGCGCCAGUACUACAGAAAUGUAGUUGACGAGGAGGAGGUUUAUCGAAUUUUCGGCGGAUGCCUUGAAA [A14U C70U C71G]
Solution: 3.81e-05

Exercise: What value of self-cleavage kobs at 10000 uM GlcN6P has been reported for the following variant? AUAAAAGCGCCAGGACUACAGAAAUGUAACUGACGAGGGGGAGGUUUAUCGAAUUUUCGGCGGAUGCCUCCAAA [A14G G29A U30C A39G]
Solution: 4.63e-05

Exercise: What value of self-cleavage kobs at 10000 uM GlcN6P has been reported for the following variant? AUAAAAGCGCCAGAACUACAGAAAUGUAGUUGACGAGGAGAAGGUUUAUCGAAUUGUCGGCGGAUGCCUCCAAA [G41A U56G]
Solution: 0.000169

Exercise: What value of self-cleavage kobs at 10000 uM GlcN6P has been reported for the following variant? AUAAAAGCGCCGGAGCUACAGAAAUGUAGUUGACGAGGAGGAGGUUUAUCGAAUUUUCGGCGGAUGCCUACAAA [A12G A15G C70A]
Solution: 8.6e-05

Exercise: What value of self-cleavage kobs at 10000 uM GlcN6P has been reported for the following variant? AUAAAAGCGCCAGAACUACAGAAAUGUAGUUGACGAGGAGGAGGUUUAUCGGAUUUUCGGCGGAUGACUCCAAA [A52G C67A]
Solution: 0.000533

Exercise: What value of self-cleavage kobs at 10000 uM GlcN6P has been reported for the following variant? AUAAAAGCGCCAUAACUACAGAAAUGUAGUUGACGAGGAGGAGGUUGAUCGAAUUUUCGGCGGAUGUCUCCAAA [G13U U47G C67U]
Solution: 4.31e-05

Exercise: What value of self-cleavage kobs at 10000 uM GlcN6P has been reported for the following variant? AUAAAAGCGCCAGGUCUACAGAAAUGUAGUUGACGAGGAGGAGGUUUUUCGAAUUUUCGGCGGAUGCCCCCAAA [A14G A15U A48U U69C]
Solution: 7.49e-05

Exercise: What value of self-cleavage kobs at 10000 uM GlcN6P has been reported for the following variant? AUAAAAGCGCCAGAACUACAGAAAUGUAGUUGACGAGGAAGAGGUUUAUCGAAUUUUCGGCGGAUGCUUCCAAA [G40A C68U]
Solution: 4.59e-05
